Recorded Plant response rating, Galium, one value per entry.
Tested on: Galium (catchweed bedstraw, Galium aparine)
Assay: Test C preemergence
Format: in vivo
Conditions: 125 g ai/ha, scale 0 to 100, 0 no effect, 100 complete control
Answer with a number only.

                                   compound  reading
0  Cc1ccc(C2CN(C)C(=O)C2C(=O)Nc2cccc(F)c2F)cc1F (stereo not shown)       95
1  CN1CC(c2cccc(C(F)(F)F)c2)C(C(=O)Nc2cccc(F)c2F)C1=O (stereo not shown)       90
2  Cc1cccc(C2CN(C)C(=O)C2C(=O)Nc2cccc(F)c2F)c1 (stereo not shown)       98

Continue with the compound presented below.
Per the record, Cc1ccc(C2CN(C)C(=O)C2C(=O)Nc2cccc(F)c2F)cc1 (stereo not shown) has Plant response rating, Galium of 100

* * *

Each record here notes measured pest or weed control at 500 g/ha.
System: ragweed (common ragweed, Ambrosia elatior)
Assay: Test A preemergence
Format: in vivo
Details: Ambrosia artemisiifolia, pre-emergence, 240 h, 500 g ai/ha, preemergence; 0 to 100 scale where 0 is no effect and 100 is complete control; read-out: Ragweed plant response rating
Write the answer as a number in %, unit excluded.

>>> print(df.to_string())
                                   compound                       result_type  unit_abbreviation  reading
0  CN1C[C@H](c2csc(C(F)F)c2)[C@@H](C(=O)Nc2cccc(F)c2F)C1=O [Compound 1122]  pest or weed control at 500 g/ha                  %       80
1  COc1ccc([C@H]2CN(C)C(=O)[C@@H]2C(=O)Nc2ccccc2F)c(OC)c1 [Compound 1215]  pest or weed control at 500 g/ha                  %        0
2  CN1CC(c2cccc(OCC=C(Cl)Cl)c2)C(C(=O)Nc2cccc(F)c2F)C1=O (stereo not shown) [Compound 1303]  pest or weed control at 500 g/ha                  %        0
3  Cc1cc([C@H]2CN(C)C(=O)[C@@H]2C(=O)Nc2cccc(F)c2C)ccc1F [Compound 1311]  pest or weed control at 500 g/ha                  %       90
4  CN1C[C@H](c2csc(C(F)F)c2)[C@@H](C(=O)Nc2ccccc2F)C1=O [Compound 1123]  pest or weed control at 500 g/ha                  %       60

// pest or weed control at 500 g/ha value for CC(C)Oc1ccc([C@H]2CNC(=O)[C@@H]2C(=O)Nc2ccc(F)cc2F)cc1 [Compound 1137] : 0

Per the record, CN1C[C@H](c2ccc3c(c2)OC(F)(F)O3)[C@@H](C(=O)Nc2ccc(F)c(F)c2F)C1=O [Compound 1204] has pest or weed control at 500 g/ha of 90

The reported pest or weed control at 500 g/ha of the compound Cc1cc([C@H]2CNC(=O)[C@@H]2C(=O)Nc2ccccc2C(F)(F)F)ccc1Cl [Compound 1245] was 20

Recorded pest or weed control at 500 g/ha (compound Cc1c(F)cccc1NC(=O)[C@H]1C(=O)N(C)C[C@@H]1c1ccc2c(c1)OC(F)(F)O2 [Compound 1252] ): 70

// sample CN1C[C@H](c2ccc3c(c2)CCO3)[C@@H](C(=O)Nc2ccc(F)c(F)c2F)C1=O [Compound 1323] , its pest or weed control at 500 g/ha was 70
